Reported pKi, Adenosine receptor A2a (Homo sapiens).
pKi: −log10 of the molar value.
MEASURED PROPERTY: pKi

CCCn1c(=O)c2[nH]c(-c3ccc(S(C)(=O)=O)cc3)c(O)c2n(C)c1=O : 6.33
CCCn1c(=O)c2[nH]c(-c3ccc(O)cc3)cc2n(CCC)c1=O : 7.32
CCCn1c(=O)c2c(cc(-c3ccc(OC)cc3)n2O)n(CCC)c1=O : 6.20
CCCn1c(=O)c2[nH]c(-c3ccc(C)cc3)c(O)c2n(CCC)c1=O : 7.05
Cc1ccc(-c2cc3c([nH]2)c(=O)n(C)c(=O)n3C)cc1 : 6.90

P. CCCn1c(=O)c2[nH]c(-c3ccco3)c(OS(=O)(=O)O)c2n(CCC)c1=O
Q. CCCn1c(=O)c2[nH]c(-c3ccc(N)cc3)c(O)c2n(CCC)c1=O
Qu. # return whichever of P and Q has the smaller pKi Kindly give the label for the entry you pick.
Ans. P

Recorded values, source ChEMBL document CHEMBL1142545.
